# Tested System: ATR/ATRIP (Homo sapiens (Human))
# Sequence (Q13535 whole entry): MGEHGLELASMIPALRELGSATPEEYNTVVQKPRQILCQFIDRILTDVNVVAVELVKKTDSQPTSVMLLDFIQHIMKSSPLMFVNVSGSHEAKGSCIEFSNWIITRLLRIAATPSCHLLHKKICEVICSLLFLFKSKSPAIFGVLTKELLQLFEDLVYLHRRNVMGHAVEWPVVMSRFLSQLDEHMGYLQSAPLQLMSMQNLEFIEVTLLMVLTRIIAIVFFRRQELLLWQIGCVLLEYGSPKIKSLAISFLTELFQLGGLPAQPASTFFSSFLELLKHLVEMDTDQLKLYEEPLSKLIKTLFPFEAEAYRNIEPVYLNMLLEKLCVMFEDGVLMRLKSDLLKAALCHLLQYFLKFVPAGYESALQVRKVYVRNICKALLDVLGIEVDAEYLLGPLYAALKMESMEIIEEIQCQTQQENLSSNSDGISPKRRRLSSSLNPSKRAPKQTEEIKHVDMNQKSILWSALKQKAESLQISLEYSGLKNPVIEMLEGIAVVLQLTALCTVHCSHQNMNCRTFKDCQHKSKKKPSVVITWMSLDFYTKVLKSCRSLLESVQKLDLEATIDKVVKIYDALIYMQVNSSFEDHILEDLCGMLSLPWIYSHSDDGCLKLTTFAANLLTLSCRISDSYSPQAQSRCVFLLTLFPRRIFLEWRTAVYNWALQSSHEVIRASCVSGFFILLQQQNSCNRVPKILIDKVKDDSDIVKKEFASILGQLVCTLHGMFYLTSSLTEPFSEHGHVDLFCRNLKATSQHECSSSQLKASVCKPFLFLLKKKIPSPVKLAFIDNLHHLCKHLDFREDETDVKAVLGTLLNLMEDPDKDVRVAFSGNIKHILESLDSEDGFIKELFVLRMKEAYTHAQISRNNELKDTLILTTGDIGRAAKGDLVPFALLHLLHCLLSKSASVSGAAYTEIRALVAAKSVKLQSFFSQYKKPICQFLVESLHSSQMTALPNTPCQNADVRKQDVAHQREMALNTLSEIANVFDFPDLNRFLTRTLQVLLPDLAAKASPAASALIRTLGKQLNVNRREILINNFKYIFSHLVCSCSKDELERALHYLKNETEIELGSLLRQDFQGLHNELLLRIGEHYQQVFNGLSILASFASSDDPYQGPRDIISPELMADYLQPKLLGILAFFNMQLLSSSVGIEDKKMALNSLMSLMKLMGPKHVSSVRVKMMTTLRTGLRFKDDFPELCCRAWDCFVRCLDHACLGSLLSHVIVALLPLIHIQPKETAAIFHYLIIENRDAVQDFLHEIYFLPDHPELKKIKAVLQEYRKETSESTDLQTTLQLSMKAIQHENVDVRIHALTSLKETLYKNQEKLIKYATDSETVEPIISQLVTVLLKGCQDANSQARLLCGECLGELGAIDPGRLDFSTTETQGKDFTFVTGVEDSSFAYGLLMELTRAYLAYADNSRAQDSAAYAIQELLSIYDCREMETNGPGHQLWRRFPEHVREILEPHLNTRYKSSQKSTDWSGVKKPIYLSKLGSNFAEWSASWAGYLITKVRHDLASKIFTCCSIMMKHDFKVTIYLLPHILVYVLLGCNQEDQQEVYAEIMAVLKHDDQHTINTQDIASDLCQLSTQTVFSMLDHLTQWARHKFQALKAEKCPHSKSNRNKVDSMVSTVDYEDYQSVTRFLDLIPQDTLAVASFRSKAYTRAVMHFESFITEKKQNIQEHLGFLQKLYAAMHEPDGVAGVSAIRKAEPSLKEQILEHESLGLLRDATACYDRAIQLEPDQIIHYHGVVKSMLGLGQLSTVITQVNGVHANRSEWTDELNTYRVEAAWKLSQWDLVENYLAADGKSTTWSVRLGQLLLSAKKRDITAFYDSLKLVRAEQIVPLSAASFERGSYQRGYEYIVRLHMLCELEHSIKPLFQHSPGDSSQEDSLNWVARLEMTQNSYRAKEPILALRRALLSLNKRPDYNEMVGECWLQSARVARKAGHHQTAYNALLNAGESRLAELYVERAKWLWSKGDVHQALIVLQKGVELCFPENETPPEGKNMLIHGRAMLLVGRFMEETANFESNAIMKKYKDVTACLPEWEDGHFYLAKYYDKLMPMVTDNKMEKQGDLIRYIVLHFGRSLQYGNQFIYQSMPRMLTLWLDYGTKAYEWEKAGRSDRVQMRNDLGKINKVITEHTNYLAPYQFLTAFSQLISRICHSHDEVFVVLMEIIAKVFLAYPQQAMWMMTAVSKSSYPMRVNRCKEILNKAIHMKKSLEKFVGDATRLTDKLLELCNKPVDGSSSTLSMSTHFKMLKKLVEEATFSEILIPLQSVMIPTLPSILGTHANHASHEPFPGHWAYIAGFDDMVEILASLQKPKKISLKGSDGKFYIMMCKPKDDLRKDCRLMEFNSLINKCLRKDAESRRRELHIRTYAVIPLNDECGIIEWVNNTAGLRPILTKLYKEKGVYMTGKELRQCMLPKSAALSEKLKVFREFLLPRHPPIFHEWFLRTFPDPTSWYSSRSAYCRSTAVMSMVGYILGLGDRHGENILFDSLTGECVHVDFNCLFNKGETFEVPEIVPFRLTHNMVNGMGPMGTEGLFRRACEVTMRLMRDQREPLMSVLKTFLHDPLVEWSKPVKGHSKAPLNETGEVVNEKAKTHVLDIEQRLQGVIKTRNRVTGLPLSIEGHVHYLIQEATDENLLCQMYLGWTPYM
# Sequence (Q8WXE1 whole entry partner): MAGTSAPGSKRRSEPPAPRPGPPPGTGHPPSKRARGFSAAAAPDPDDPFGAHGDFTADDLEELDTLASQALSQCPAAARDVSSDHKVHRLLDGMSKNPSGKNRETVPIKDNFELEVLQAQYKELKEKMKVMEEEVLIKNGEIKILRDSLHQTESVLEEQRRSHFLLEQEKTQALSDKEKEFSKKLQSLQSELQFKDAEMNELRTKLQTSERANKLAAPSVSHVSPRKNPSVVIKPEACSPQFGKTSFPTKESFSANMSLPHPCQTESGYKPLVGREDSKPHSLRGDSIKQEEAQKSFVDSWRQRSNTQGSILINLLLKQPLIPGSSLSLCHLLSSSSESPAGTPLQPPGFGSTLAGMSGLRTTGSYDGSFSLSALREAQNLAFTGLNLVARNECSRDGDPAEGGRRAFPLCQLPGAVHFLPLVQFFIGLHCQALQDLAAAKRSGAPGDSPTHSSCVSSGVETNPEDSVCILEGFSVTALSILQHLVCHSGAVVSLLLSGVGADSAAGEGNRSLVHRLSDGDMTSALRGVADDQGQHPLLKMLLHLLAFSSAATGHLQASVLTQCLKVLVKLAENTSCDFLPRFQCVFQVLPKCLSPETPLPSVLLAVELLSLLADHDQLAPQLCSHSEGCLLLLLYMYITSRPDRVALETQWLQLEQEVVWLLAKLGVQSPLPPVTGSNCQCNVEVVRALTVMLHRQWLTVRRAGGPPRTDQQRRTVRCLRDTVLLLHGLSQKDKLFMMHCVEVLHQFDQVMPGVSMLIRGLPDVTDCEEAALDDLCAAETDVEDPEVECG
# Test: ATR/ATRIP enzymatic assay (AlphaScreen, phosphorylation of p53)
# Test Context: read-out: ATR IC50; recombinant ATR/ATRIP 0.63 nM, 25 nM GST-p53, 3 μM ATP, 1 hour room temperature
Can you tell me pIC50 for the items I'm about to list?
Keep it numeric: pIC50 is minus log10 of the concentration in mol/L.

So what pIC50 did C[C@@H]1COCCN1c1cc(S(C)(=O)=O)c2cnn(-c3cc[nH]n3)c2n1 [Compound 44] get with ATR/ATRIP (Homo sapiens (Human))?
7.57

Request: C[C@@H]1COCCN1c1cc(C(C)(C)O)c2ccn(-c3cc[nH]n3)c2n1 [Compound 10]
5.80

Same thing, different compound: C[C@@H]1COCCN1c1cc(C(C)(C)O)c2cnn(-c3cccnn3)c2n1 [Compound 67]
6.70

Note, next up: C[C@@H]1COCCN1c1cc(C(C)(C#N)C2COC2)c2cnn(-c3cc[nH]n3)c2n1 (some centres unmarked) [Compound 49]
7.96

Also C[C@@H]1COCCN1c1cc(-c2ccnn2C)c2ccn(-c3cc[nH]n3)c2n1 [Compound 34] ?
6.35

Cool, now C[C@@H]1COCCN1c1cc(CC#N)c2cnn(-c3cc[nH]n3)c2n1 [Compound 32]
7.27

Now consider C[C@@H]1COCCN1c1cc(Nc2cccnc2)c2ccn(-c3cc[nH]n3)c2n1 [Compound 17] .
5.92

Values were extracted from patent US12264155B2.
